species on record: Homo sapiens; assay: Inhibitory activity against platelet aggregation, induced by arachidonic acid in human platelet rich plasma; assay type: functional; conditions: read-out: I50
pIC50: −log10 of the molar value.
Classification field: enter rule met for pIC50 values not below 8, rule not met for values below it.

stdin: Is the recorded value of pIC50 equal to or greater than 8 for this molecule? O=C(O)CCc1ccccc1CC1C2CCC(O2)C1c1nc(CO)co1 (stereo not given)
stdout: rule not met

stdin: Try this molecule too: O=C(O)CCc1ccccc1CC1C2CCC(O2)C1c1nc(C(=O)CCCCCC2CCCCC2)co1 (stereo not given)
stdout: rule met

stdin: Try this molecule too: CN(CCCCC1CCCCC1)C(=O)c1coc(C2C3CCC(O3)C2Cc2ccccc2CCC(=O)O)n1 (stereo not given)
stdout: rule met

====

species on record: Homo sapiens; assay: Inhibitory activity against platelet aggregation, induced by U-46619 in human platelet rich plasma; type: functional; conditions: read-out: I50
So I've got a bunch of compounds here, and I need their IC50 values.
Express it in nM; write the number only.

stdin: Name the recorded IC50 for O=C(O)CCc1ccccc1CC1C2CCC(O2)C1c1nc(C(=O)NCCCCc2ccc(F)cc2)co1 (centres undefined) .
stdout: 11

stdin: Try this compound too: CC(C)(Cc1ccccc1CC1C2CCC(O2)C1c1nc(C(=O)NCCCCC2CCCCC2)co1)C(=O)O (centres undefined)
stdout: 13

stdin: Try this compound too: CCCNC(=O)c1coc(C2C3CCC(O3)C2Cc2ccccc2CCC(=O)O)n1 (centres undefined)
stdout: 53

stdin: Try this compound too: CC(C)(C)CCNC(=O)c1coc(C2C3CCC(O3)C2Cc2ccccc2CCC(=O)O)n1 (centres undefined)
stdout: 28

stdin: Try this compound too: O=C(O)CCc1ccccc1CC1C2CCC(O2)C1c1nc(C(=O)NCCCCC(=O)NC2CCCCC2)co1 (centres undefined)
stdout: 82

stdin: Try this compound too: O=C(O)CCc1ccccc1CC1C2CCC(O2)C1c1nc(C(=O)NCCCCCO)co1 (centres undefined)
stdout: 35

stdin: Try this compound too: CC(C)(C)CCCCNC(=O)c1coc(C2C3CCC(O3)C2Cc2ccccc2CCC(=O)O)n1 (centres undefined)
stdout: 35

stdin: Try this compound too: CCC(C)(C)NC(=O)c1coc(C2C3CCC(O3)C2Cc2ccccc2CCC(=O)O)n1 (centres undefined)
stdout: 30

stdin: Try this compound too: CC(C)NC(=O)c1coc(C2C3CCC(O3)C2Cc2ccccc2CCC(=O)O)n1 (centres undefined)
stdout: 63

stdin: Try this compound too: O=C(O)Cc1ccccc1CC1C2CCC(O2)C1c1nc(C(=O)NCCCCC2CCCCC2)co1 (centres undefined)
stdout: 97

stdin: Try this compound too: O=C(NCCCCC1CCCCC1)c1coc(C2C3CCC(O3)C2Cc2ccccc2C(=O)O)n1 (centres undefined)
stdout: 171

stdin: Try this compound too: O=C(O)CCc1ccccc1CC1C2CCC(O2)C1c1nc(C(=O)NCCc2ccccc2)co1 (centres undefined)
stdout: 30

stdin: Try this compound too: O=C(O)CCc1ccccc1CC1C2CCC(O2)C1c1nc(C(=O)OCCCCC2CCCCC2)co1 (centres undefined)
stdout: 10

stdin: Try this compound too: O=C(O)CCc1ccccc1CC1C2CCC(O2)C1c1nc(C(=O)NCCCCN2CCCCC2)co1 (centres undefined)
stdout: 137

stdin: Try this compound too: CCCCCNC(=O)c1coc(C2C3CCC(O3)C2Cc2ccccc2CCC(=O)O)n1 (centres undefined)
stdout: 21

stdin: Try this compound too: O=C(O)CCc1ccccc1CC1C2CCC(O2)C1c1nc(C(=O)CCCCCC2CCCCC2)co1 (centres undefined)
stdout: 11

stdin: Try this compound too: COc1ccc(CCCCNC(=O)c2coc(C3C4CCC(O4)C3Cc3ccccc3CCC(=O)O)n2)cc1 (centres undefined)
stdout: 62

stdin: Try this compound too: O=C(O)Cc1cccc(CC2C3CCC(O3)C2c2nc(C(=O)NCCCCC3CCCCC3)co2)c1 (centres undefined)
stdout: 34

stdin: Try this compound too: O=C(O)CCc1ccccc1CC1C2CCC(O2)C1c1nc(C(=O)NCCCCC(F)(F)F)co1 (centres undefined)
stdout: 29
